The entries below are paired with their reported Plant response rating, Galium.
- System: galium (catchweed bedstraw, Galium aparine)
- METHOD_DESCRIPTION: Test B postemergence plant response
- Type: in vivo
- CONDITION_SUMMARY: 31 g ai/ha, Postemergence; 0 to 100 scale, 0 no effect, 100 complete control
EXPERIMENTAL_READOUT: Plant response rating, Galium

ENTRY_SMILES: COc1cccc(Oc2ncc(Cl)cn2)c1-c1cc(C(F)F)on1
REPORTED_VALUE: 50
--
ENTRY_SMILES: FC(F)c1cc(-c2c(Cl)cccc2Oc2ncc(Cl)cn2)on1
REPORTED_VALUE: 100
--
ENTRY_SMILES: CCn1nc(C(F)(F)F)cc1-c1c(C#N)cccc1Oc1ncc(Cl)cn1
REPORTED_VALUE: 10
--
ENTRY_SMILES: COc1cccc(Oc2ncc(Cl)cn2)c1-c1cc(C(F)(F)F)on1
REPORTED_VALUE: 70

----------
- Tested on: Italian ryegrass (Lolium multiflorum)
- METHOD_DESCRIPTION: Test D pre-/postemergence plant response
- Type: in vivo
- CONDITION_SUMMARY: Preemergence; 31 g ai/ha; scale 0 to 100 (0 no effect, 100 complete control)
The entries below are paired with their reported Plant response rating, Ryegrass, Italian.

MOLECULE: N#Cc1cccc(Oc2ncc(Cl)cn2)c1-c1cc(C(F)F)on1 [Compound 180]
Plant response rating, Ryegrass, Italian: 0

MOLECULE: Cc1cc(-c2ccccc2Oc2ncc(Cl)cn2)no1 [Compound 60]
Plant response rating, Ryegrass, Italian: 0

MOLECULE: Cc1cc(-c2ccccc2Oc2ncc(Cl)cn2)on1 [Compound 58]
Plant response rating, Ryegrass, Italian: 0

MOLECULE: Clc1cnc(Oc2ccccc2-c2cc(C3CC3)on2)nc1 [Compound 183]
Plant response rating, Ryegrass, Italian: 0

MOLECULE: FC(F)Oc1cccc(Oc2ncc(Cl)cn2)c1-c1cc(C(F)F)on1 [Compound 131]
Plant response rating, Ryegrass, Italian: 20

----------
- Tested on: galium (catchweed bedstraw, Galium aparine)
- METHOD_DESCRIPTION: Test B postemergence plant response
- Assay type: in vivo
- CONDITION_SUMMARY: 125 g ai/ha, postemergence; 0 to 100 scale, 0 no effect, 100 complete control
EXPERIMENTAL_READOUT: Plant response rating, Galium

COMPOUND: Cc1cc(-c2c(F)cccc2Oc2ncc(Cl)cn2)on1 [Compound 229]
REPORTED_VALUE: 100
//
COMPOUND: FC(F)=Cc1cc(-c2c(F)cccc2Oc2ncc(Cl)cn2)no1 [Compound 91]
REPORTED_VALUE: 0
//
COMPOUND: Cn1nnnc1-c1ccccc1Oc1ncc(Br)cn1 [Compound 49]
REPORTED_VALUE: 20
//
COMPOUND: FC(F)c1cc(-c2ccccc2Oc2ncc(Cl)cn2)co1 [Compound 141]
REPORTED_VALUE: 0

----------
- System: ducksalad (Heteranthera limosa)
- METHOD_DESCRIPTION: Test C flooded paddy test plant response
- Assay type: in vivo
- CONDITION_SUMMARY: Flood, 250 g ai/ha; scale of 0 to 100 where 0 is no effect and 100 is complete control; 13 to 15 days
The entries below are paired with their reported Ducksalad plant response rating.

ENTRY_SMILES: N#Cc1cccc(Oc2ncc(Cl)cn2)c1-c1cc(C(F)(F)F)on1
TARGET_SYSTEM: ducksalad (Heteranthera limosa)
Ducksalad plant response rating: 40
//
ENTRY_SMILES: Cn1nc(C(F)(F)F)cc1-c1c(C#N)cccc1Oc1ncc(Cl)cn1
TARGET_SYSTEM: ducksalad (Heteranthera limosa)
Ducksalad plant response rating: 40
//
ENTRY_SMILES: Cn1nnnc1-c1ccccc1Oc1ncc(Cl)cn1
TARGET_SYSTEM: ducksalad (Heteranthera limosa)
Ducksalad plant response rating: 0
//
ENTRY_SMILES: CC(F)(F)c1cc(-c2ccccc2Oc2ncc(Cl)cn2)no1
TARGET_SYSTEM: ducksalad (Heteranthera limosa)
Ducksalad plant response rating: 80
//
ENTRY_SMILES: FC(F)(Cl)c1cc(-c2ccccc2Oc2ncc(Cl)cn2)no1
TARGET_SYSTEM: ducksalad (Heteranthera limosa)
Ducksalad plant response rating: 85
//
ENTRY_SMILES: FC(F)(F)c1cc(-c2c(I)cccc2Oc2ncc(Cl)cn2)no1
TARGET_SYSTEM: ducksalad (Heteranthera limosa)
Ducksalad plant response rating: 0
//
ENTRY_SMILES: Fc1ccc(-c2cc(C(F)(F)F)no2)c(Oc2ncc(Br)cn2)c1
TARGET_SYSTEM: ducksalad (Heteranthera limosa)
Ducksalad plant response rating: 80
//
ENTRY_SMILES: Cn1cc(-c2ccccc2Oc2ncc(Cl)cn2)cn1
TARGET_SYSTEM: ducksalad (Heteranthera limosa)
Ducksalad plant response rating: 0
//
ENTRY_SMILES: Clc1cnc(Oc2ccccc2-c2ccsc2)nc1
TARGET_SYSTEM: ducksalad (Heteranthera limosa)
Ducksalad plant response rating: 65
//
ENTRY_SMILES: Brc1cnc(Oc2ccccc2-c2ccsc2)nc1
TARGET_SYSTEM: ducksalad (Heteranthera limosa)
Ducksalad plant response rating: 0
//
ENTRY_SMILES: Cn1nc(C(F)(F)F)cc1-c1ccccc1Oc1ncc(Cl)cn1
TARGET_SYSTEM: ducksalad (Heteranthera limosa)
Ducksalad plant response rating: 0
